From: paper PMC12648310

assay: Pharmacokinetics in SD rats; assay type: in vivo, Sprague–Dawley (SD) rats; details: male, Sprague-Dawley, rat, plasma, IP 10 mg/kg, mean
Reported metric: Cmax (ng/mL)
Answer in ng/mL, number only, no unit symbol.

// Cmax value for Cc1nnc(CNC(=O)CCOCC(COCCC(=O)NCc2nnc(C)nn2)NC(=O)COc2cccc3c2C(=O)N(C2CCC(=O)NC2=O)C3=O)nn1 (stereo not shown) : 398

----------
assay: Pharmacokinetics in SD rats; type: in vivo, Sprague–Dawley (SD) rats; conditions: male, Sprague-Dawley, rat, plasma, IV 5 mg/kg, mean
Reported Vd values follow for various compounds

| Compound | Vd |
| --- | --- |
| Cc1nnc(CNC(=O)CCOCC(COCCC(=O)NCc2nnc(C)nn2)NC(=O)COc2cccc3c2C(=O)N(C2CCC(=O)NC2=O)C3=O)nn1 (centres unmarked) | 9.39 L/kg |

// moving on: another record for Vd
// Vd value for Cc1sc2c(c1C)C(c1ccc(Cl)cc1)=NC(CC(=O)NCCNC(=O)OC1CCC=CCCC1)c1nnc(C)n1-2 (centres unmarked) : 10.3 L/kg
